Give inhibition at 1 µM for every item shown.
# TARGET_OR_TEST_SYSTEM: LATS2 (Homo sapiens, UniProt Q9NRM7)
# Sequence (Q9NRM7 whole entry): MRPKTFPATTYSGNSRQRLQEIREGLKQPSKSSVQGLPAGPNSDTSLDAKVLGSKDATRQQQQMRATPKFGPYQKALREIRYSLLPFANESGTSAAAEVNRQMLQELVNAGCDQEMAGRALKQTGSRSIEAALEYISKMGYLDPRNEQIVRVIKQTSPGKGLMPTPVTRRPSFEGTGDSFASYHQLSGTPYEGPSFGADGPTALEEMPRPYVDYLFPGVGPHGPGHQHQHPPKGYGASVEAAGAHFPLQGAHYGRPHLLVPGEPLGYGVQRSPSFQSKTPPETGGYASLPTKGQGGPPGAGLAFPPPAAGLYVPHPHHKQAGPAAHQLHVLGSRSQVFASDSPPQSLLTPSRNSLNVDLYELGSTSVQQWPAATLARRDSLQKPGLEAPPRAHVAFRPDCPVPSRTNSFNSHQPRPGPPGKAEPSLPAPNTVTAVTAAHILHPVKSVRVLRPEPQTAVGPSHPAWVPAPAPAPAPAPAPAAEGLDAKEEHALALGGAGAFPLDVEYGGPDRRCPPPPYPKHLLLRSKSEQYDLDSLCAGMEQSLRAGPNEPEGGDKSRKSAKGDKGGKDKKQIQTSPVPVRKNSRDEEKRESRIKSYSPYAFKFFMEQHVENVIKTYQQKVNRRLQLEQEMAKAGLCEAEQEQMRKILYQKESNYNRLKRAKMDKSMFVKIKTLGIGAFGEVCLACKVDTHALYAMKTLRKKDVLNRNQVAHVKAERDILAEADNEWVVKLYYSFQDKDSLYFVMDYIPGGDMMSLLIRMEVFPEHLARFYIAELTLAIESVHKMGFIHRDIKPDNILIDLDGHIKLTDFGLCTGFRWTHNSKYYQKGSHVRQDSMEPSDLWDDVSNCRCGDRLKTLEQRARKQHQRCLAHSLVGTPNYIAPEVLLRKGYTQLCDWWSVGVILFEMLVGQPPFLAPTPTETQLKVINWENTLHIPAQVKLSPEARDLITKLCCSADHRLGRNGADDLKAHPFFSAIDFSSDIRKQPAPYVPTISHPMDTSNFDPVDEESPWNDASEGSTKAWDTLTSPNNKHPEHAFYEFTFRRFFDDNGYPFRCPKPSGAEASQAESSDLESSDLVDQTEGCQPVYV
# ASSAY_TEXT: KINOMEscan competition binding
# TEST_CONDITIONS: read-out: %Inh LATS2
Provide only the numeric value, understood in %.

Task: What value of inhibition at 1 µM has been reported for the following compound? Cn1cc(-c2cnc(N)c3c(-c4ccc5c(c4)CCN5C(=O)Cc4ccccc4)csc23)cn1 [UNC10225012A]
Result: 23

Task: Queued: O=c1cc(N2CCOCC2)nc2n(Cc3cccc(Cl)c3Cl)c(C3CC3)nn12 [UNC10225469A]
Result: 27

Task: Next up: CS(=O)(=O)Cc1ccc(Nc2nccc(-c3c(-c4cccc(NC(=O)C5CCCCC5)c4)nn4ncccc34)n2)cc1 [UNC10225159A]
Result: 48

Task: Ok, now Cc1ccc(NC(=O)Nc2cccc(C(F)(F)F)c2)cc1 [UNC10225187A]
Result: 20

Task: Now consider COc1cccc(OC)c1C(=O)Nc1cccc(-c2nn3ccccc3c2-c2ccnc(Nc3cccc(F)c3)n2)c1 [UNC10225310A] and answer again.
Result: 10

###

# TARGET_OR_TEST_SYSTEM: MAP3K15 (Homo sapiens, UniProt Q6ZN16)
# Sequence (Q6ZN16 1-1313): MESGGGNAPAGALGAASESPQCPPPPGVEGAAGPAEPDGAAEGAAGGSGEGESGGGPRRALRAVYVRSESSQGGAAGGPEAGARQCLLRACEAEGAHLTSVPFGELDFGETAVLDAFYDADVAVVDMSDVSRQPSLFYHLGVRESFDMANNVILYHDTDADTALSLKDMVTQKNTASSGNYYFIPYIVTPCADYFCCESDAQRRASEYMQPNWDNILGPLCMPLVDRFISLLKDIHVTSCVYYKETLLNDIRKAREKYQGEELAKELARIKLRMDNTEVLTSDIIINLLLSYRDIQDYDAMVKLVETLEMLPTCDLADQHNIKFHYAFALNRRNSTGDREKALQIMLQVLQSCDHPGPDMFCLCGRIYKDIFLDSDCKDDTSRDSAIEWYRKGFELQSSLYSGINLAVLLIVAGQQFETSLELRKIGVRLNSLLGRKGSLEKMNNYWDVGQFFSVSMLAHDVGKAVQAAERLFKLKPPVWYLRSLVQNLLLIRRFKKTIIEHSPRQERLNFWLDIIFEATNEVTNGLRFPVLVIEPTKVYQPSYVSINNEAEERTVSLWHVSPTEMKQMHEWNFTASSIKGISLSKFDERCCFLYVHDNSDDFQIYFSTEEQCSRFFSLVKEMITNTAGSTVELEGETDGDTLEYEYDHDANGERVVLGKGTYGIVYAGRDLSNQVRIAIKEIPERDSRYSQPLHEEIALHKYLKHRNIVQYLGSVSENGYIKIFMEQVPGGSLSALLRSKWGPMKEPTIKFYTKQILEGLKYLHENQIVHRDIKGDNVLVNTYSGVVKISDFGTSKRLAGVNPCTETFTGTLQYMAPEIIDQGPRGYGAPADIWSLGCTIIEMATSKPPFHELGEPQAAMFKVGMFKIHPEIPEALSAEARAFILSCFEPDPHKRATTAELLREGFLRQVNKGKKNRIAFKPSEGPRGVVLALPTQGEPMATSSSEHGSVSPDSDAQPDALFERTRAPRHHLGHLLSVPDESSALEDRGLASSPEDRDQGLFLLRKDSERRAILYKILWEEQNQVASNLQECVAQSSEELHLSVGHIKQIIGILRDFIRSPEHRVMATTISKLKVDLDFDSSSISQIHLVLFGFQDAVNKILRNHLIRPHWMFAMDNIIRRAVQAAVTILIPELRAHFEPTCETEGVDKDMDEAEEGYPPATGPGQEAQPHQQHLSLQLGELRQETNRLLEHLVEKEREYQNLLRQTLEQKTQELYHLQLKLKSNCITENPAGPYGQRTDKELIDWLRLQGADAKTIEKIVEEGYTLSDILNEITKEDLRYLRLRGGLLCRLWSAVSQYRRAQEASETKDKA
# ASSAY_TEXT: KINOMEscan competition binding
# TEST_CONDITIONS: read-out: %Inh MAP3K15
Record form. Attribute: inhibition at 1 µM. Fill in for each entry.
Numeric only. Scale: %

Task: I am curious: what inhibition at 1 µM value has been reported for COc1cccc(OC)c1C(=O)Nc1cccc(-c2nn3ccccc3c2-c2ccnc(Nc3cccc(F)c3)n2)c1 [UNC10225310A] ?
Result: 0

Task: Next: O=c1cc(N2CCOCC2)nc2n(Cc3cccc(Cl)c3Cl)c(C3CC3)nn12 [UNC10225469A]
Result: 0

Task: Please give the result for Cn1cc(-c2cnc(N)c3c(-c4ccc5c(c4)CCN5C(=O)Cc4ccccc4)csc23)cn1 [UNC10225012A] too.
Result: 35

Task: Same question, CS(=O)(=O)Cc1ccc(Nc2nccc(-c3c(-c4cccc(NC(=O)C5CCCCC5)c4)nn4ncccc34)n2)cc1 [UNC10225159A] this time
Result: 38

Task: Continue with Cc1ccc(NC(=O)Nc2cccc(C(F)(F)F)c2)cc1 [UNC10225187A]
Result: 0
